This section presents compounds with their documented GI50 values.
Test system: COLO 205
Test: NCI tumour cell line growth inhibition, 48 h
The source made the active and inactive calls. Cut-off read from the data, not from the text of the source: active = GI50 up to about 1.1 µM and inactive = higher.

> print(dat)
                                  compound  experimental.target             reading
1  COC(=O)/C=C1\CCCN1CCc1cc2c(cc1CC#N)OCO2             COLO 205  35.2 µM (inactive)

Item: O=P(NCCCO)(OCc1ccccc1)N(CCCl)CCCl (centres undefined) | GI50: > 100 µM (inactive)

Item: C/C(=N\N=C(N)N)c1c(C(=O)OCCCCCCOC(=O)c2nc3sccn3c2/C(C)=N/N=C(N)N)nc2sccn12 | GI50: > 100 µM (inactive)

Item: O=c1c2cc([N+](=O)[O-])cnc2sn1-c1ccc(Oc2ccccc2)cc1 | GI50: > 100 µM (inactive)

---

Test system: NCI-H460
Test: NCI tumour cell line growth inhibition, 48 h
Active and inactive are the calls of the source. No stated cut-off is given here; in the data, active = GI50 up to about 1.1 µM and inactive = higher.
Returns: one label drawn from active, inactive

Entry COc1ccccc1/C=C(\NC(=O)c1ccccc1)c1nc2ccc(Cl)cc2[nH]1 : call = ?
inactive

---

Tested on: NCI-H226
Assay: NCI tumour cell line growth inhibition, 48 h
Activity calls are given as the source filed them. Rule as the data show it: active = GI50 up to about 1.1 µM and inactive = higher.
Returns: one label drawn from active, inactive

Entry CNS(=O)(=O)c1ccc2c(c1)/C(=C1/Nc3ccccc3C1=O)C(=O)N2 : call = ?
inactive

Entry C=CCN(C(=O)CNC(=O)C(F)(F)F)c1cc(OCc2ccccc2)c2c(c1)c(C)cn2S(=O)(=O)c1ccccc1 : call = ?
inactive

Entry O=C1CC(Cc2n[nH]c3c2CCCC3)CC(=O)N1 : call = ?
inactive

Entry O=C(NCCCn1ccnc1[N+](=O)[O-])C(=O)NCCCn1ccnc1[N+](=O)[O-] : call = ?
inactive

---

Test system: 786-0
Test: NCI tumour cell line growth inhibition, 48 h
Activity calls are given as the source filed them. Cut-off read from the data, not from the text of the source: active = GI50 up to about 1.1 µM and inactive = higher.
Returns: one label drawn from Yes for active, No for inactive

Entry CC1CCC(=O)C(C(=O)CC2CC(=O)NC(=O)C2)C1 (stereo not given) : call = ?
No

Entry CCOC(=O)Oc1ccc2[nH]c3c(C)cc(N)c(C)c3c2c1 : call = ?
No

Entry Cc1cc(-c2nc3cc(F)ccc3s2)ccc1NC(=O)C(C)N (stereo not given) : call = ?
No

Entry Oc1ccccc1C(Sc1nc2ccccc2s1)Sc1nc2ccccc2s1 : call = ?
No

Entry Oc1ccc(SCc2ccc(NCc3ccccc3)cc2)cc1 : call = ?
Yes

Entry COc1cc(O)c(C(C)=O)c(O)c1 : call = ?
No

Entry CN1C(=O)C2(C=CC(O)CC2)c2ccccc21 (stereo not given) : call = ?
No

Entry O=C1[C@H]2ON(c3ccccc3)C(c3ccc([N+](=O)[O-])cc3)[C@H]2C(=O)N1c1ccc(Cc2ccc(N3C(=O)[C@@H]4ON(c5ccccc5)C(c5ccc([N+](=O)[O-])cc5)[C@@H]4C3=O)cc2)cc1 (stereo not given in full) : call = ?
No

Entry Cc1ccc(S(=O)(=O)N/N=C2/C3CC4CCC2C4C3)cc1 (stereo not given) : call = ?
No

Entry c1ccc(SC(CCCCC(Sc2ccccc2)Sc2ccccc2)Sc2ccccc2)cc1 : call = ?
No

---

Test system: LOX IMVI
Experiment: NCI tumour cell line growth inhibition, 48 h
The source made the active and inactive calls. No stated cut-off is given here; in the data, active = GI50 up to about 1.1 µM and inactive = higher.
OBSERVED PROPERTY: GI50

Known results for compounds:
> print(dat)
                         structure.notation  observed.property              reading
1  Cc1ccc(/N=N/C(=NNC(=O)c2ccc(C)cc2)c2ccc(N(C)C)cc2)cc1               GI50   33.4 µM (inactive)
2  CCOc1ccc(/N=N/c2ccc3oc(=O)c(/C(C)=N\NC(=O)CC(=O)Nc4ccc(Cl)cc4)cc3c2)cc1               GI50   13.2 µM (inactive)
3          CC1(c2ccc[n+](Cc3ccccc3)c2)OCCO1               GI50  > 100 µM (inactive)

Let us examine a further case.
Item: CCc1c[n+]([O-])c(C)cc1[N+](=O)[O-] | GI50: > 100 µM (inactive)

The reported numbers originate from ChEMBL document CHEMBL1201862.
